B1: tRNA (parent)
chain: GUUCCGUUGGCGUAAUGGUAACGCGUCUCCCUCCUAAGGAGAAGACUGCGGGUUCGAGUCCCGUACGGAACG

variants of: B1; assay: yeast fitness relative to wild type (ratio to wild type); higher = fitter; tRNA-Arg(CCU), competitive growth, 37 C, YPD
This sample holds only a part of the variants without activity.
TEST READOUT: yeast fitness

1. A40G C61U A65U    ≤ 0.5
2. A21U C34A G56C G63A U64C G67C    ≤ 0.5
3. U7G U32A U35C C61G    ≤ 0.5
4. A14G G18A C22G C49A    ≤ 0.5
5. U2A C30A C49U C61G    ≤ 0.5
6. U8C C27G A42G    ≤ 0.5

Measured values drawn from the RNAGym collection of RNA variant scans (doi:10.1126/science.aae0568) for this set.
